Listed here: items and their measured z-score.
# run_description: basal MM1S mitochondrial membrane potential changes, profiling panel, cell-based, JC-1 fluorescence, 24 h, 100 nL compound (AID 1170); further: test concentration not given here
# experimental_context: higher = more signal

- compound: "C=CCC(OC(C)=O)[C@@H]1[C@@H](N(Cc2cc3ccccc3o2)C(=O)c2ccc(C)cc2)c2cc(OCCCO)ccc2N1C(=O)Cc1ccc2ccccc2c1 (stereo not given in full)"
  z-score: 0.718
- compound: "C=C1C2CC3C(=C4C(CO[C@@H]4[C@H]4CCCN4S(=O)(=O)c4ccccc4[N+](=O)[O-])C4C(=O)N(C)C(=O)C34)CC2C(=O)N1C (stereo not given in full)"
  z-score: -0.347
- compound: "C=CCN1C(=O)[C@@]2(O[C@@H](CCO)[C@H]([Si](C)(C)c3ccc(OC)cc3)[C@H]2C)c2cc(N3C(=O)c4ccccc4Oc4ccccc43)ccc21"
  z-score: -2.33
- compound: "O=c1cccc(-c2cccc(Cl)c2)o1"
  z-score: -0.024
- compound: "CCN(CC)c1ccc(N2CC=CC34O[C@@H]5/C=C\\CCC(C)OC(=O)C5[C@H]3C(=O)N(CCO)[C@@H]4C2=O)cc1 (stereo not given in full)"
  z-score: 1.83
